Below, each entry is listed alongside its reported pIC50.
# STUDY_SYSTEM: GSK3α (GST-full length GSK3α) (Homo sapiens (Human), UniProt P49840)
# Sequence (P49840 whole entry): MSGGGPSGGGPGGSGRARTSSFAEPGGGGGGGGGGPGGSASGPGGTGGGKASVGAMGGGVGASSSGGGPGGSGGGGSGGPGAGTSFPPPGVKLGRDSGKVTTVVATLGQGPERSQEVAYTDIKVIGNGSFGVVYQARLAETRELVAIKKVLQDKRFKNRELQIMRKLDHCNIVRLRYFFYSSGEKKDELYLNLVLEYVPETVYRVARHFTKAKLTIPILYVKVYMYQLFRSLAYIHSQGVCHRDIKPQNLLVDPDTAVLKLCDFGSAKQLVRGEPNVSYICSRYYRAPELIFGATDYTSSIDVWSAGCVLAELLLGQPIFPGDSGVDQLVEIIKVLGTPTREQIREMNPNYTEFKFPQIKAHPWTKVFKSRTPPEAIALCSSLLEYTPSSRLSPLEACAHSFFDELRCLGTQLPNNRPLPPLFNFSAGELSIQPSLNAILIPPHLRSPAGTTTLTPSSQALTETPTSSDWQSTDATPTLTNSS
# EXPERIMENTAL_DETAILS: GSK3α TR-FRET kinase assay
# Assay type: biochemical
# MEASUREMENT_CONTEXT: GSK3-A (TR-FRET 1 mM ATP); GMean; IC50, 1 mM ATP; geometric mean
pIC50: −log10 of the molar value.

Example compounds with recorded pIC50:
Cc1[nH]nc2c1C1(CN(S(=O)(=O)CC3CC3)C1)C1=C(CC(C)(C)CC1=O)N2 [Compound 107828] : ≥ 7.00
CC1(C)CC(=O)C2=C(C1)Nc1n[nH]cc1C21CCN(S(=O)(=O)c2ccc(OC(F)F)cc2)CC1 [Compound 947246] : ≥ 7.00
CC1(C)CC(=O)C2=C(C1)Nc1n[nH]cc1C21CCN(S(=O)(=O)c2ccccc2)CC1 [Compound 874530] : 6.00 to 7.00
Cc1cccc(S(=O)(=O)N2CC[C@]3(C2)C2=C(CC(C)(C)CC2=O)Nc2n[nH]cc23)c1 [Compound 951863] : 6.00 to 7.00
CC1(C)CC(=O)C2=C(C1)Nc1n[nH]cc1C21CCC(C(F)(F)F)CC1 (centres unmarked) [Compound 865193] : 6.00 to 7.00
COc1cncc(F)c1-c1cccc([C@]2(C)C3=C(CC(C)(C)CC3=O)Nc3n[nH]c(CC(C)(C)C)c32)c1 [Compound 108954] : 5.30 to 6.00
CC(C)S(=O)(=O)N1CCC2(CC1)C1=C(Nc3n[nH]cc32)[C@@H](F)C(C)(C)CC1=O [Compound 951714] : 6.00 to 7.00
CC1(C)CC(=O)C2=C(C1)Nc1n[nH]cc1C21CCN(S(=O)(=O)c2cccnc2)CC1 [Compound 947613] : 6.00 to 7.00

Need pIC50, item Cc1ccc(S(=O)(=O)N2CCC3(CC2)C2=C(CC(C)(C)CC2=O)Nc2n[nH]cc23)s1 [Compound 945672]
6.00 to 7.00

Need pIC50, item COc1cccc(S(=O)(=O)N2CCC3(CC2)C2=C(CC(C)(C)CC2=O)Nc2n[nH]cc23)c1F [Compound 945656]
≥ 7.00

Need pIC50, item CCC1(c2cccc(-c3cn(C)nc3C)c2)C2=C(Nc3n[nH]cc31)C(F)C(C)(C)CC2=O (single isomer, unassigned) [Compound 947652]
6.00 to 7.00

Need pIC50, item CC[C@@]1(c2cccc(-c3cnn4c3CCCC4)c2)C2=C(CC(C)(C)NC2=O)Nc2[nH]nc(C(F)(F)F)c21 [Compound 948775]
≥ 7.00

Need pIC50, item Cn1ccc(S(=O)(=O)N2CCC3(CC2)C2=C(CC(C)(C)CC2=O)Nc2n[nH]cc23)n1 [Compound 901471]
6.00 to 7.00

Need pIC50, item CC1(C)CC(=O)C2=C(C1)Nc1n[nH]cc1[C@@]21CC[C@@H](C(F)(F)F)C1 [Compound 952436]
5.30 to 6.00

---

# STUDY_SYSTEM: GSK3α (GST-full length GSK3α) (Homo sapiens (Human))
# EXPERIMENTAL_DETAILS: GSK3α TR-FRET kinase assay
# Format: biochemical
# MEASUREMENT_CONTEXT: 1 nM GSK3α, 4 μM ATP, 30 minute preincubation, Table 16; read-out: GSK3-A TR-FRET BIOCHEMICAL (TR-FRET)
pIC50: −log10 of the molar value.
EXPERIMENTAL_READOUT: pIC50

COC(=O)C1CCC2(CC1)C1=C(CC(C)(C)CC1=O)Nc1n[nH]cc12 (stereo not drawn) [Compound 918270] : 6.00 to 7.00

Now for a further compound.
Need pIC50, item CC1(C)CC2=C(C(=O)[C@H]1F)[C@]1(CC[C@H](C(F)(F)F)CC1)c1c[nH]nc1N2
≥ 7.00
